Every entry's value here was drawn from paper PMC10427817.

- Tested on: Salmonella enterica
- ASSAY_REMARKS: Anti-microbial activity assay, S. enterica
- Format: cell-based

COMPOUND	IC50
COc1cc2oc3cc(O[C@@H]4O[C@H](CO)[C@@H](O)[C@H](O)[C@H]4O)c(OC)c(CC=C(C)C)c3c(=O)c2c(O)c1CC=C(C)C [β-ManGlc (2), β-mangostin 6-O-β-D-glucopyranoside]	> 29 µg/mL
CO/N=C(\C(=O)N[C@@H]1C(=O)N2C(C(=O)O)=C(COC(C)=O)CS[C@H]12)c1csc(N)n1 [cefotaxime, reference compound]	0.43 µg/mL
COc1cc2oc3cc(O)c(OC)c(CC=C(C)C)c3c(=O)c2c(O)c1CC=C(C)C	> 32 µg/mL
COc1cc2oc3cc(OC4CC(O)C(O)C(CO)O4)c(OC)c(CC=C(C)C)c3c(=O)c2c(O)c1CC=C(C)C (stereo not shown)	> 71 µg/mL
